Provide the reported (αSN1-1)/(αSN1), 24 hours, 11° C. of each item.
Target: T1, alpha-s1 casein from Bos taurus
T1 chain: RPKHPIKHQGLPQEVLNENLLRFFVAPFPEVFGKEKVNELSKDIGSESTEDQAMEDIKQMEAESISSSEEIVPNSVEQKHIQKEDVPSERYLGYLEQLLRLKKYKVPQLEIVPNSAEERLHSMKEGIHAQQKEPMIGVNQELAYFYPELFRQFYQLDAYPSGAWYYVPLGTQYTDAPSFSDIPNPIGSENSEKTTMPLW
Give bare numbers.

1. camel chymosin variant #161 (L295M) (protein) GKVAREPLTSYLDSQYFGKIYIGTPPQEFTVVFDTGSSDLWVPSIYCKSNVCKNHHRFDPRKSSTFRNLGKPLSIHYGTGSMEGFLGYDTVTVSNIVDPNQTVGLSTEQPGEVFTYSEFDGILGLAYPSLASEYSVPVFDNMMDRHLVARDLFSVYMDRNGQGSMLTLGAIDPSYYTGSLHWVPVTLQQYWQFTVDSVTINGVAVACVGGCQAILDTGTSVLFGPSSDILKIQMAIGATENRYGEFDVNCGNLRSMPTVVFEINGRDYPLSPSAYTSKDQGFCTSGFQGDNNSEMWILGDVFIREYYSVFDRANNRVGLAKAI | 2

API: the following record is the query input.
Problem: Entry under review: camel chymosin variant #143 (F223V) (protein) GKVAREPLTSYLDSQYFGKIYIGTPPQEFTVVFDTGSSDLWVPSIYCKSNVCKNHHRFDPRKSSTFRNLGKPLSIHYGTGSMEGFLGYDTVTVSNIVDPNQTVGLSTEQPGEVFTYSEFDGILGLAYPSLASEYSVPVFDNMMDRHLVARDLFSVYMDRNGQGSMLTLGAIDPSYYTGSLHWVPVTLQQYWQFTVDSVTINGVAVACVGGCQAILDTGTSVLVGPSSDILKIQMAIGATENRYGEFDVNCGNLRSMPTVVFEINGRDYPLSPSAYTSKDQGFCTSGFQGDNNSELWILGDVFIREYYSVFDRANNRVGLAKAI . Reported (αSN1-1)/(αSN1), 24 hours, 11° C.?
Result: 2.4

These measurements were taken from patent US20150140169.
